MEASUREMENT_DESCRIPTION: chemical genetic growth profiling, strain panel (AID 1159580);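 also: tested at 20 µM; growth read once vehicle control cultures reached saturation at 30 °C; 1 = growth at the plate median or of vehicle wells; lower values mean less growth of the strain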
MEASUREMENT_CONTEXT: S. cerevisiae deletion strains, growth OD, locus YJL187C, strain SWE1 (second series), active compounds read low
Screen size: about 5,500 compounds; about 2,000 (36%) were called active. Inconclusive results (about 18%) are left out. Some of the results follow.
QUANTITY_KIND: normalized growth
When you answer, write just the number.

compound=CN=C(NC#N)NCCSCc1nc[nH]c1C observed_result=0.988
compound=C=CC1=C(C(=O)O)N2C(=O)[C@@H](NC(=O)/C(=N/O)c3csc(N)n3)[C@H]2SC1 observed_result=0.997
compound="CC1(C)C2CC[C@]3(C)C(C(=O)C=C4[C@@H]5C[C@@](C)(C(=O)O)CC[C@]5(C)CC[C@]43C)[C@@]2(C)CC[C@@H]1O (stereo not given in full)" observed_result=1

Q: Output normalized growth of c1ccc(CC2=NCCN2)cc1
Ans: 0.988

Q: Output normalized growth of c1ccc(CN(CC2=NCCN2)c2ccccc2)cc1
Ans: 1.01
